# test.protocol: Cytotoxicity against human Jurkat cells assessed as cell growth inhibition measured after 72 hrs in presence of MLN4924 by CellTiter-Glo assay
# Type: toxicity, cell-based
property: GI50 at 72 h (nM)
State the answer as a number, implicitly in nM.

Query: Provide GI50 at 72 h value for the following compound: "COC(=O)c1nc(NC(=O)Cn2cnc(C)c(C)c2=O)sc1CCc1ccccc1"
Response: 1400

----------
# measured.target: Protein cereblon/Eukaryotic peptide chain release factor GTP-binding subunit ERF3A (Homo sapiens, UniProt Q96SW2+P15170)
# Sequence (Q96SW2 whole entry): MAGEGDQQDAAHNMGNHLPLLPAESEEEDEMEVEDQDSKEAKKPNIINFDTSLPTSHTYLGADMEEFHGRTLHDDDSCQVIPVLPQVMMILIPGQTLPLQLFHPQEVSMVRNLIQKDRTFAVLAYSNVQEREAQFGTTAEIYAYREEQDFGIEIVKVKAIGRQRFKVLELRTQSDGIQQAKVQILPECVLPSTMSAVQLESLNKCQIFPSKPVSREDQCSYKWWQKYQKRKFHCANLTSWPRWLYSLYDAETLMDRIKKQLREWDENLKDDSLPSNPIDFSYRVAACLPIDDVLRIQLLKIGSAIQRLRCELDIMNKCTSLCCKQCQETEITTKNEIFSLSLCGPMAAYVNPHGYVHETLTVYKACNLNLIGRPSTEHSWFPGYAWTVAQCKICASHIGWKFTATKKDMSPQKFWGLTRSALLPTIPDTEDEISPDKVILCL
# Sequence (P15170 whole entry): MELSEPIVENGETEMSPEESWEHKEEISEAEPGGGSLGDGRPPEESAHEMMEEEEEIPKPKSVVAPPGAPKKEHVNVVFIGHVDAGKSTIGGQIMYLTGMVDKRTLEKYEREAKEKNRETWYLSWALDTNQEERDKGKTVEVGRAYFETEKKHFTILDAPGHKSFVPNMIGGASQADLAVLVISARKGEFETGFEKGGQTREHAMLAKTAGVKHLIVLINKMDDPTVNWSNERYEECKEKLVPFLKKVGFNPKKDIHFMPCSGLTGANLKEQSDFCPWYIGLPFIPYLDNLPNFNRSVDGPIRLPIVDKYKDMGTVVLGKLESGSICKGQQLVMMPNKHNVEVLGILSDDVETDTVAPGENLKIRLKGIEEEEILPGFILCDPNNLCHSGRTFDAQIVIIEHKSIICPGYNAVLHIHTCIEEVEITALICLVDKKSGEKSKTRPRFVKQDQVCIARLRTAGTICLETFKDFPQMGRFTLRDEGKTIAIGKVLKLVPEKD
# test.protocol: Molecular glue activity at human full length wild type CRBN/Hibit tagged GSPT1 in human Jurkat cells assessed as induction of GSPT1 degradation
# Type: cell-based
property: DC50 (µM)
State the answer as a number, implicitly in µM.

> print(dat)
                                     smiles  result.value
1  COC(=O)c1nc(NC(=O)Cn2cnccc2=O)sc1CCc1ccccc1             4

Next, consider the following compound.
Query: Provide DC50 value for the following compound: "COC(=O)c1nc(NC(=O)Cn2cnc(C)c(C)c2=O)sc1CCc1ccccc1"
Response: 1.2

----------
# measured.target: Protein cereblon/Eukaryotic peptide chain release factor GTP-binding subunit ERF3A (Homo sapiens, UniProt Q96SW2+P15170)
# test.protocol: Molecular glue activity at human full length wild type CRBN/Hibit tagged GSPT1 in human Jurkat cells assessed as induction of GSPT1 degradation
# Type: cell-based
The entries below come with measured DC50 values attached.

> print(dat)
                                     smiles  property  result.value
1  COC(=O)c1nc(NC(=O)Cn2cncc(C)c2=O)sc1CCc1ccccc1      DC50       > 10 µM

Query: Provide DC50 value for the following compound: "COC(=O)c1nc(NC(=O)Cn2cnc3c(c2=O)CCC3)sc1CCc1ccccc1"
Response: > 10 µM

Query: Provide DC50 value for the following compound: "CNC(=O)c1nc(NC(=O)Cn2cnc(C)c(C)c2=O)sc1CCc1ccccc1"
Response: > 10 µM
